Entry source: patent US20120277257A1

Assay: Phase I clinical trial, human plasma pharmacokinetics of oral Compound 1
Assay type: in vivo
Conditions: human, plasma, po, 340 mg/m^2, Day 01, Cohort 5, N = 2, 340 mg/m^2 (480-620 mg), oral daily
MEASUREMENT_NAME: half-life

Asked: Give half-life for `C[C@H](O)C(=O)N1CCC(CCn2c(Sc3cc4c(cc3Br)OCO4)nc3c(N)ncnc32)CC1`
Given back: 14.1 h

###

Experiment: Phase I clinical trial, human plasma pharmacokinetics of oral Compound 1
Format: in vivo
Settings: both sexes, human, plasma, po, 100 mg/m^2, Day 01, Cohort 2, 100 mg/m^2 (160 mg), oral daily; read-out: AUC(0-24)
MEASUREMENT_NAME: AUC(0-t)

Asked: Give AUC(0-t) for `C[C@H](O)C(=O)N1CCC(CCn2c(Sc3cc4c(cc3Br)OCO4)nc3c(N)ncnc32)CC1`
Given back: 29900 ng·h/mL

###

Assay: Phase I clinical trial, human plasma pharmacokinetics of oral Compound 1
Type: in vivo
Conditions: human, plasma, po, 165 mg/m^2, Day 01, Cohort 3, Subject 301, 165 mg/m^2 (300 mg), oral daily
Description: A human clinical study was initiated at a starting dose of 50 mg/m^2. Subjects had recurrent cancer refractory to available systemic therapy. Compound 1 was administered daily by mouth in tablet form for 21 consecutive days in a 28 day cycle to each enrolled subject. […] Plasma was collected pre-dose only for cycle 1 day 8. […]
MEASUREMENT_NAME: Cmax (ng/mL)
Answers are plain numbers, in ng/mL.

Asked: Give Cmax for C[C@H](O)C(=O)N1CCC(CCn2c(Sc3cc4c(cc3Br)OCO4)nc3c(N)ncnc32)CC1 [Compound 1]
Given back: 6870

###

Test: Phase I clinical trial, human plasma pharmacokinetics of oral Compound 1
Format: in vivo
Settings: human, plasma, po, 165 mg/m^2, Day 21, Cohort 3, 165 mg/m^2 (300 mg), oral daily; read-out: AUC(0-24)
MEASUREMENT_NAME: AUC(0-t) (µg·h/mL)
One number for each entry, in µg·h/mL.

Asked: Give AUC(0-t) for C[C@H](O)C(=O)N1CCC(CCn2c(Sc3cc4c(cc3Br)OCO4)nc3c(N)ncnc32)CC1 [Compound 1]
Given back: 200

###

Experiment: Phase I clinical trial, human plasma pharmacokinetics of oral Compound 1
Assay type: in vivo
Conditions: both sexes, human, plasma, po, 165 mg/m^2, Day 01, Cohort 3, 165 mg/m^2 (300 mg), oral daily
MEASUREMENT_NAME: AUC(0-inf) (µg·h/mL)
Numbers only, in µg·h/mL.

Asked: Give AUC(0-inf) for C[C@H](O)C(=O)N1CCC(CCn2c(Sc3cc4c(cc3Br)OCO4)nc3c(N)ncnc32)CC1 [Compound 1]
Given back: 125

###

Assay: Oral pharmacokinetics in female Sprague Dawley rats, single dose versus two doses
Format: in vivo
Conditions: female, Sprague Dawley, rat, plasma; 50 mg/kg oral, single dose
MEASUREMENT_NAME: Cmax (ng/mL)
Give bare numbers, in ng/mL.

Asked: Give Cmax for `C[C@H](O)C(=O)N1CCC(CCn2c(Sc3cc4c(cc3Br)OCO4)nc3c(N)ncnc32)CC1`
Given back: 2120

###

Test: Phase I clinical trial, human plasma pharmacokinetics of oral Compound 1
Assay type: in vivo
Settings: both sexes, human, plasma, po, 240 mg, Day 21, Cohort 6 (BID), N = 2, 240 mg, oral twice daily
MEASUREMENT_NAME: Cmax (ng/mL)
Give bare numbers, in ng/mL.

Asked: Give Cmax for `C[C@H](O)C(=O)N1CCC(CCn2c(Sc3cc4c(cc3Br)OCO4)nc3c(N)ncnc32)CC1`
Given back: 9200
